Test system: Aurora B/INCENP (Homo sapiens)
Test description: Determination of inhibition of AIK: Aurora B/INCENP Direct Fluorescence Polarization (IMAP) assay
Details: 10 uM ATP, 0.8 nM Aurora B/INCENP, 45 min at room temperature; read-out: IC50 of Exemplified Compounds Against AIK B
Measured metric: IC50

Cc1cnc2[nH]c3c(OCC4CCN(C)CC4)ccc(-c4cccc(C(=O)NC5CC5)c4)c3c2c1 = ≥ 11 nM
Cc1cnc2[nH]c3c(OCC4CCN(C)CC4)ccc(-c4cccc(NC(=O)C5CC5)c4)c3c2c1 = 6 to 10 nM
CCS(=O)(=O)c1cccc(-c2cnc(NCCCN(C)C)c3[nH]c4ncc(C)cc4c23)c1 = 6 to 10 nM
Cc1cnc2[nH]c3c(OC[C@@H](CN(C)C)OP(=O)(O)O)ccc(-c4cccc(S(=O)(=O)C5CC5)c4)c3c2c1 = ≤ 5 nM
CCNS(=O)(=O)c1cccc(-c2cc(C(=O)NC3CCN(C)CC3)c(C)c3[nH]c4ncc(C)cc4c23)c1 = ≥ 11 nM

Check the records and state IC50 for Cc1cnc2[nH]c3c(OCCCN(C)C)ccc(-c4cccc(NC(=O)C5CC5)c4)c3c2c1
≥ 11 nM

Check the records and state IC50 for Cc1cnc2[nH]c3c(C)c(C(=O)NCCN(C)C)cc(-c4cccc(NC(=O)C5CC5)c4)c3c2c1
≥ 11 nM

====

Reported values of pIC50 for individual entries
Test system: Aurora B/INCENP (Homo sapiens, UniProt Q96GD4)
Sequence (Q96GD4 whole entry): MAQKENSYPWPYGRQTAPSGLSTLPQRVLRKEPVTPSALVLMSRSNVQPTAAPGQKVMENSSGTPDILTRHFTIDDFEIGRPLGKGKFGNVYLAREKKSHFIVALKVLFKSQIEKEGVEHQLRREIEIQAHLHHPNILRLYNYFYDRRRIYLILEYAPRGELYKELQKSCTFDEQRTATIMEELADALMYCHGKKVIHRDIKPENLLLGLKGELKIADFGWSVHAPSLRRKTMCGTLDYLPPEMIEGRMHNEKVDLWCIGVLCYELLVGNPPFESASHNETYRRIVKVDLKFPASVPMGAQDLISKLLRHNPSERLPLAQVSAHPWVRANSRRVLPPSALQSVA
Sequence (Q9NQS7 whole entry partner): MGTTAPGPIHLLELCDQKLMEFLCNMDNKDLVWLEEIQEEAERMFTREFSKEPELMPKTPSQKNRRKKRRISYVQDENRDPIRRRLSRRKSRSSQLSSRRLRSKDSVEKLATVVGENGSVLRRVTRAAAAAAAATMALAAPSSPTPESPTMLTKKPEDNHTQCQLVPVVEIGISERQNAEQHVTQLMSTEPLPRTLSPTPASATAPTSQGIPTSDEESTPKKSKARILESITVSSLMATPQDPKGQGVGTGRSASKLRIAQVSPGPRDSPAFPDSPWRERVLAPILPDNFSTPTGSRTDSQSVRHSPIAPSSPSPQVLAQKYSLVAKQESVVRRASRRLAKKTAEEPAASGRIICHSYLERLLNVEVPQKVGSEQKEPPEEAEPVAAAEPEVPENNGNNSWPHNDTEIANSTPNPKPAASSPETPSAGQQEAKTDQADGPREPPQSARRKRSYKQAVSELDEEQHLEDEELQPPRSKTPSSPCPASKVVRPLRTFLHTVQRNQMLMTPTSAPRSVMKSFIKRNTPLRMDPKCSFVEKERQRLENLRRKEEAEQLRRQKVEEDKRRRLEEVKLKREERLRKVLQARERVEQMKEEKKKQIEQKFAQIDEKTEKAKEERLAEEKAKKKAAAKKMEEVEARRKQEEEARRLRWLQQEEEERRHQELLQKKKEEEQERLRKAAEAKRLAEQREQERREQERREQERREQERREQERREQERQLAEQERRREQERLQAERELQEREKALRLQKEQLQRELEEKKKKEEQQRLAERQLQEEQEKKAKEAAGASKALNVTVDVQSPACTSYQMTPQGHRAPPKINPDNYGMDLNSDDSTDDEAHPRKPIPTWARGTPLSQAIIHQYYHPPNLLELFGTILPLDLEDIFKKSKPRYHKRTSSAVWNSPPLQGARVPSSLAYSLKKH
Test description: Determination of inhibition of AIK: Aurora B/INCENP Direct Fluorescence Polarization (IMAP) assay
Details: 10 uM ATP, 0.8 nM Aurora B/INCENP, 45 min at room temperature; read-out: IC50 of Exemplified Compounds Against AIK B
Procedure: Detection of the reaction product is performed by addition of Progressive IMAP binding reagent (Molecular Devices). Reaction product may be determined quantitatively by FP using an Analyst HT plate reader (Molecular Devices) with an excitation wavelength at 485 nm and emission at 530 nm and using a Fluorescein 505 dichroic mirror. […] IC50 values may be calculated by non-linear curve fitting of the compound concentrations and fluorescent polarization values to the standard IC50 equation.
pIC50: −log10 of the molar value.

The examples below pair each entry with its known result.
Cc1cnc2[nH]c3c(OC[C@H](CN(C)C)OP(=O)(O)O)ccc(-c4cccc(S(=O)(=O)C5CC5)c4)c3c2c1 = ≥ 8.30
CCS(=O)(=O)c1cccc(-c2ccc(C)c3[nH]c4ncc(C)cc4c23)c1 = 8.00 to 8.22
CCS(=O)(=O)c1cccc(-c2cc(C(=O)NC3CCN(C)CC3)c(C)c3[nH]c4ncc(C)cc4c23)c1 = 8.00 to 8.22

Check the records and state pIC50 for CCOc1ccc(-c2cccc(S(=O)(=O)CC)c2)c2c1[nH]c1ncc(C)cc12
8.00 to 8.22

====

Test system: Aurora B/INCENP (Homo sapiens)
Test description: Determination of inhibition of AIK: Aurora B/INCENP Direct Fluorescence Polarization (IMAP) assay
Details: 10 uM ATP, 0.8 nM Aurora B/INCENP, 45 min at room temperature; read-out: IC50 of Exemplified Compounds Against AIK B
pIC50: −log10 of the molar value.
Reported values of pIC50 for individual entries

The examples below pair each entry with its known result.
CCS(=O)(=O)c1cccc(-c2cc(C(=O)NCCN(C)C)c(C)c3[nH]c4ncc(C)cc4c23)c1 = 8.00 to 8.22
COc1ccc(-c2cccc(NC(=O)C3CC3)c2)c2c1[nH]c1ncc(C)cc12 = ≤ 7.96
CCS(=O)(=O)c1cccc(-c2cc(C(=O)NCCCN3CCN(C)CC3)c(C)c3[nH]c4ncc(C)cc4c23)c1 = ≤ 7.96
CCOc1ncc(-c2cccc(S(=O)(=O)CC)c2)c2c1[nH]c1ncc(C)cc12 = 8.00 to 8.22
CCS(=O)(=O)c1cccc(-c2cc(C(=O)NCCN(C)C)cc3[nH]c4ncc(C)cc4c23)c1 = 8.00 to 8.22
CCS(=O)(=O)c1cccc(-c2ccc(OC[C@H](O)CN(C)C)c3[nH]c4ncc(C)cc4c23)c1 = 8.00 to 8.22

Turning now to a further compound:
Check the records and state pIC50 for CN1CCC(COc2ccc(-c3cccc(C(=O)NC4CC4)c3)c3c2[nH]c2ncc(Cl)cc23)CC1
8.00 to 8.22
